Listing of recorded Sox17 Expression, % of positive control by entry.
# Tested on: H1 human embryonic stem cells
# Assay Text: Analog screening with GDF-8 and growth factor/agonist pool (Example 8, Tables 7 and 8)
# Type: cell-based
# Assay Context: Plate 2; compound + EGF, FGF, PDGF-A, VEGF, PDGF-D, muscimol, GDF8; positive control Activin A/Wnt3a

In the examples that follow, each entry is paired with its recorded Sox17 Expression, % of positive control.
CN1CCCC(=O)NCCCc2cncc(c2)-c2ncnc(n2)Nc2cccc(c2)C1 [Compound 20]: 31.2 % of positive control
CCN1CC(=O)NCCCc2cccc(c2)-c2ncnc(n2)Nc2cc(Cl)cc(c2)C1 [Compound 16]: 51.8 % of positive control
CCN1CC(=O)NCCCc2cncc(c2)-c2ncnc(n2)Nc2cc(Cl)cc(c2)C1 [Compound 35]: 55.7 % of positive control
CCN1CC(=O)NCCCc2cc(ccc2F)-c2ncnc(n2)Nc2cc(Cl)cc(c2)C1 [Compound 25]: 26.6 % of positive control
O=C1CCN2CCN(CC2)Cc2cccc(c2)Nc2ncnc(n2)-c2ccnc(c2)NCCCN1 [Compound 13]: 39.7 % of positive control

[ask] Entry C=CCN1CC(=O)NCCCc2cncc(c2)-c2ncnc(n2)Nc2cccc(c2)C1 [Compound 40] has what Sox17 Expression, % of positive control?
[reply] 28.8 % of positive control

[ask] Look at this molecule and give its reported Sox17 Expression, % of positive control. O=C1CCN2CCN(CC2)Cc2cc(ccc2Cl)Nc2ncnc(n2)-c2ccnc(c2)CCCN1 [Compound 27]
[reply] 30.8 % of positive control

[ask] Returns the measured Sox17 Expression, % of positive control for the input molecule. Input: CN1CCC(=O)NCCCc2cncc(c2)-c2ncnc(n2)Nc2cccc(c2)C1 [Compound 19]
[reply] 41.6 % of positive control

====

# System: H1 human embryonic stem cells
# Assay Text: Analog screening with GDF-8 and growth factor/agonist pool (Example 8, Tables 7 and 8)
# Format: cell-based
# Assay Context: Plate 1; compound + EGF, FGF, PDGF-A, VEGF, PDGF-D, muscimol, GDF8; positive control Activin A/Wnt3a
Test Readout: Cell Number, % of positive control

Use the examples below as a reference point.
O=C1NCCc2cccc(c2)Nc2ncnc(n2)-c2cccc(c2)CCCN2CCC1CC2: 51.9 % of positive control
O=C1CCN2CCN(CC2)Cc2cccc(c2)Nc2ncnc(n2)-c2cncc(c2)CCCN1: 90.8 % of positive control
O=C1CCN2CCN(CC2)Cc2cc(Cl)cc(c2)Nc2ncnc(n2)-c2ccc(F)c(c2)CCCN1: 94.9 % of positive control

# ---- query molecule ----
[ask] Entry under review: O=C1NCCCc2cncc(c2)-c2ncnc(n2)Nc2cccc(c2)CN2CCC[C@@H]12 . Reported Cell Number, % of positive control?
[reply] 97.3 % of positive control

====

# Test system: H1 human embryonic stem cells
# Assay Text: Analog screening with GDF-8 and growth factor/agonist pool (Example 8, Tables 7 and 8)
# Type: cell-based
# Assay Context: Table 8: hits with greater than 25% activity of the positive control; with GDF-8 and growth factors/agonists
Test Readout: Sox17 Expression, % of positive control

See these solved cases before continuing.
O=C1CCN2CCN(CC2)Cc2cc(ccc2Cl)Nc2ncnc(n2)-c2ccnc(c2)CCCN1 [Compound 27]: 30.8 % of positive control
O=C1NCCCc2cc(ccc2F)-c2ncnc(n2)Nc2cc(Cl)cc(c2)CN2CCCC1C2 (centres unmarked) [Compound 26]: 33.1 % of positive control
O=C1NCCCc2cncc(c2)-c2ncnc(n2)Nc2cc(Cl)cc(c2)CN2CCCC1C2 (centres unmarked) [Compound 38]: 86.2 % of positive control
CCN1CCCc2cccc(c2)-c2ncnc(n2)Nc2ccccc2CNC(=O)C1 [Compound 32]: 37.1 % of positive control
C=CCN1CC(=O)NCCCc2cncc(c2)-c2ncnc(n2)Nc2cccc(c2)C1 [Compound 40]: 28.8 % of positive control
CN1CCCC(=O)NCCc2cccc(c2)Nc2ncnc(n2)-c2cccc(c2)CCC1 [Compound 33]: 28.3 % of positive control
CN1CCC(=O)NCCCNc2cccc(c2)-c2ncnc(n2)Nc2cccc(c2)C1 [Compound 21]: 65.9 % of positive control

Now for another entry.
[ask] Return Sox17 Expression, % of positive control measured with H1 human embryonic stem cells given this molecule: O=C1NCCCc2cncc(c2)-c2ncnc(n2)Nc2cc(Cl)cc(c2)CN2CCC[C@@H]12 [Compound 36]
[reply] 37.8 % of positive control
